test system: Escherichia coli; assay: Antibacterial activity against Escherichia coli SANK 70569 (NIHJ JC-2); format: functional
measured.property: MIC

GET /values?readout=MIC&item= CCCCCC[C@H]1OC(=O)CNC(=O)[C@@H]([C@H](C)O)NC(=O)[C@H](CO)NC(=O)[C@H]([C@@H](C)CC)NC(=O)[C@H](CC(C)C)N(C)C(=O)[C@@H]1C 12.5 µg/mL

GET /values?readout=MIC&item= CCCCCC[C@H]1OC(=O)CNC(=O)[C@H]([C@H](C)O)NC(=O)[C@H](CO)NC(=O)[C@H]([C@H](C)CC)NC(=O)[C@H](CC(C)C)NC(=O)[C@@H]1C > 100 µg/mL

GET /values?readout=MIC&item= CCCCCC[C@H]1OC(=O)CNC(=O)[C@@H]([C@H](C)OC)NC(=O)[C@H](CO)NC(=O)[C@H]([C@H](C)CC)NC(=O)[C@H](CC(C)C)N(C)C(=O)[C@@H]1C 25 µg/mL

GET /values?readout=MIC&item= CCCCCC[C@H]1OC(=O)CNC(=O)[C@@H]([C@@H](C)O)NC(=O)[C@H](CO)NC(=O)[C@H]([C@H](C)CC)NC(=O)[C@H](CC(C)C)N(C)C(=O)[C@@H]1C > 100 µg/mL
